target: A disintegrin and metalloproteinase with thrombospondin motifs 5 (Homo sapiens, UniProt Q9UNA0); assay: Inhibition of human recombinant ADAMTS-5 using QTVTWPDMELPLPRNITEGEARGSVIL-TVKPIFEVSPSPL(biotinyl)K as substrate incubated 10 mins prior to substrate addition measured after 3 hrs by spectrophotometry
readout type: IC50

Solved cases (3 shown):
compound	reported result
COc1ccc(OCC(=O)NNC(=S)NCc2ccc(-c3ccccc3)cc2)cc1	1.7 µM
O=C(COc1ccc(Cl)cc1)NNC(=S)N1CCC(Cc2ccccc2)CC1	1.6 µM
O=C(COc1ccc(Cl)cc1)NCC(S)C(=O)NCCc1ccccc1 (stereo unspecified)	8.7 µM

Which IC50 reading was recorded for the compound O=C(COc1ccc(Cl)cc1)NNC(=S)NCc1cccnc1 ?
100 µM

Would you mind doing O=C(COc1ccc(Cl)c(Cl)c1)NNC(=S)NCc1ccc(-c2ccccc2)cc1 as well?
1.2 µM

Queued: O=C(COc1ccc([N+](=O)[O-])cc1)NNC(=S)NCCCCC1CCCCC1
0.81 µM

Lookup O=C(NNC(=S)NCCCCC1CCCCC1)C1CNc2cc(Cl)ccc2O1 (stereo unspecified)
1.26 µM

What would you report for O=C(COc1ccccc1)NNC(=S)NCc1ccc(-c2ccccc2)cc1 ?
10 µM

What do we get for O=C(Cc1ccc(-c2ccccc2)cc1)NNC(=S)NCCCCC1CCCCC1 ?
0.3 µM

Can you check O=C(COc1ccccc1)NNC(=S)NCCCCC1CCCCC1 next?
> 100 µM

And the next one, O=C(COc1ccc(Cl)cc1)NNC(=S)NCc1ccc(-c2ccccc2)cc1 ?
1.2 µM

* * *

target: A disintegrin and metalloproteinase with thrombospondin motifs 4 (Homo sapiens); test: Inhibition of human recombinant ADAMTS-4 using QTVTWPDMELPLPRNITEGEARGSVIL-TVKPIFEVSPSPL(biotinyl)K as substrate incubated for 10 mins prior to substrate addition measured after 3 hrs by spectrophotometry
Sequence (O75173 whole entry): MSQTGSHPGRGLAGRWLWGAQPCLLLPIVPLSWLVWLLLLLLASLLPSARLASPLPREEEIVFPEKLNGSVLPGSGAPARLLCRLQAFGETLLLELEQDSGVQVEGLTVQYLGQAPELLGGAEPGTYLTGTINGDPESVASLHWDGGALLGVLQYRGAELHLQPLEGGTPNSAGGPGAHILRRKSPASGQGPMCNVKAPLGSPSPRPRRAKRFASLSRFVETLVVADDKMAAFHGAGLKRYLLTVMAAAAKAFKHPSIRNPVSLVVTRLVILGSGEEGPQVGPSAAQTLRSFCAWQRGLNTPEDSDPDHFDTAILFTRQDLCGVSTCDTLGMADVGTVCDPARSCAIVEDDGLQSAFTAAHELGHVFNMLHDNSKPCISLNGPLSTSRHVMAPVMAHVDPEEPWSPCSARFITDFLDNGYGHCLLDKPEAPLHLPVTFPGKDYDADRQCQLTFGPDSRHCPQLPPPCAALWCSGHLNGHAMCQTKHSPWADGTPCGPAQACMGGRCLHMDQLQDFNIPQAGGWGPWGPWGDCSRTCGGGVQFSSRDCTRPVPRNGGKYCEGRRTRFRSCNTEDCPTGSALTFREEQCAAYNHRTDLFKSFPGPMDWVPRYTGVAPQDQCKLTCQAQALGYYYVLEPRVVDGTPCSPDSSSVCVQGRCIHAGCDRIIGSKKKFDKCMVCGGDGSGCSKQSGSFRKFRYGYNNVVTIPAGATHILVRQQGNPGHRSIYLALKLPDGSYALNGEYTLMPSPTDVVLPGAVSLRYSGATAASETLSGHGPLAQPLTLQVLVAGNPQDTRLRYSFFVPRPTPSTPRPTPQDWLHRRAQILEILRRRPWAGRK
# maps each entry to its pIC50
The meaning of pIC50 here: minus log10 of the concentration in molar units.

O=C(NNC(=S)NCCCCC1CCCCC1)c1ccc(Cl)cc1 5.85

Given the compound O=C(COc1ccc(Cl)cc1)NNC(=S)NCCCCC1CCCCC1 , what is its reported pIC50?
6.20

Same for CN(CCCCc1ccccc1)C(=S)NNC(=O)COc1ccc(Cl)cc1
5.82

Try this compound too: O=C(COc1ccc(Cl)cc1)NNC(=S)NCCCc1ccccc1
5.70

# repeat for O=C(COc1ccc(Cl)cc1)NNC(=S)NCc1ccccc1-c1ccccc1
5.54

Next compound: O=C(Cc1ccc(-c2ccccc2)cc1)NNC(=S)NCCCCC1CCCCC1
6.14

* * *

target: Matrix metalloproteinase-9 (Homo sapiens)
Sequence (P14780 whole entry): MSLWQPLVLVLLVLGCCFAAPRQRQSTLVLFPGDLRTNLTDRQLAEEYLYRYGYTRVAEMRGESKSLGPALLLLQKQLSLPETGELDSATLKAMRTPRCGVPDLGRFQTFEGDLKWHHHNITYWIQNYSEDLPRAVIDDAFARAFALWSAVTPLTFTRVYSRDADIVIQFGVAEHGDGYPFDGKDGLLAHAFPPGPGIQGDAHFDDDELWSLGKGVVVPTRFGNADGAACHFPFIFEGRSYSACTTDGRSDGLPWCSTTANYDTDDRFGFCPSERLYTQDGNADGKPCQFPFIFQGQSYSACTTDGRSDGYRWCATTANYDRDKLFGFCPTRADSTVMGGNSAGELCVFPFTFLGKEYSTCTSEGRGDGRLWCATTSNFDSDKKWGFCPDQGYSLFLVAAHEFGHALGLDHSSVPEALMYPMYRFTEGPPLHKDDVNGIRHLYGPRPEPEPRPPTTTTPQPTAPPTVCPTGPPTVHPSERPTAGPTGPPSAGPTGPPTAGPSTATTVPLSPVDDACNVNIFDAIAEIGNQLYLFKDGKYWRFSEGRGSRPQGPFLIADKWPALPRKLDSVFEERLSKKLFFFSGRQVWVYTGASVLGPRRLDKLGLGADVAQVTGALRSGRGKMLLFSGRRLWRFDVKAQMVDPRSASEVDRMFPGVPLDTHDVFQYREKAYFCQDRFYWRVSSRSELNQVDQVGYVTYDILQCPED
pIC50: −log10 of the molar value.
readout type: pIC50

# get_value(readout='pIC50', item= O=C(COc1ccc(Cl)cc1)NNC(=S)NCCCCC1CCCCC1 )
< 5.00

* * *

molecular target: Neutrophil collagenase (Homo sapiens); test: Inhibition of human MMP-8 using Mca-Pro-Cha-Gly-Nva-His-Ala-Dpa-NH2 as substrate after 120 mins
Sequence (P22894 whole entry): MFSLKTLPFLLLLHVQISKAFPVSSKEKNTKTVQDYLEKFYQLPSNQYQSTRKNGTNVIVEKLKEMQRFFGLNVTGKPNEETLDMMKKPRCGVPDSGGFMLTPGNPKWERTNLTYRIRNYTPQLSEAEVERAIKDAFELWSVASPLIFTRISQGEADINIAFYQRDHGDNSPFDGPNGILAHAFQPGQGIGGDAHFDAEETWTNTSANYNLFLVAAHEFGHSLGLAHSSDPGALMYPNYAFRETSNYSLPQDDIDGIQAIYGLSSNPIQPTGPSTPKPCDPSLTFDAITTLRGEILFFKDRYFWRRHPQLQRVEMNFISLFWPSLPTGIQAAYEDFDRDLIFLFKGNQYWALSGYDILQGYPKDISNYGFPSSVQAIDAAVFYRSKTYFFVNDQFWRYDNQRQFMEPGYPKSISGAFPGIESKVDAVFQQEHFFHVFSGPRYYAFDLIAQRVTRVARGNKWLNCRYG
readout type: pIC50
The quantity pIC50 is defined as the negative base-10 logarithm of the molar concentration.

Returns the measured pIC50 for the input molecule. Input: O=C(COc1ccc(Cl)cc1)NNC(=S)NCCCCC1CCCCC1
4.33

* * *

Biological target: UniProt Q9UNA0
Sequence (whole entry): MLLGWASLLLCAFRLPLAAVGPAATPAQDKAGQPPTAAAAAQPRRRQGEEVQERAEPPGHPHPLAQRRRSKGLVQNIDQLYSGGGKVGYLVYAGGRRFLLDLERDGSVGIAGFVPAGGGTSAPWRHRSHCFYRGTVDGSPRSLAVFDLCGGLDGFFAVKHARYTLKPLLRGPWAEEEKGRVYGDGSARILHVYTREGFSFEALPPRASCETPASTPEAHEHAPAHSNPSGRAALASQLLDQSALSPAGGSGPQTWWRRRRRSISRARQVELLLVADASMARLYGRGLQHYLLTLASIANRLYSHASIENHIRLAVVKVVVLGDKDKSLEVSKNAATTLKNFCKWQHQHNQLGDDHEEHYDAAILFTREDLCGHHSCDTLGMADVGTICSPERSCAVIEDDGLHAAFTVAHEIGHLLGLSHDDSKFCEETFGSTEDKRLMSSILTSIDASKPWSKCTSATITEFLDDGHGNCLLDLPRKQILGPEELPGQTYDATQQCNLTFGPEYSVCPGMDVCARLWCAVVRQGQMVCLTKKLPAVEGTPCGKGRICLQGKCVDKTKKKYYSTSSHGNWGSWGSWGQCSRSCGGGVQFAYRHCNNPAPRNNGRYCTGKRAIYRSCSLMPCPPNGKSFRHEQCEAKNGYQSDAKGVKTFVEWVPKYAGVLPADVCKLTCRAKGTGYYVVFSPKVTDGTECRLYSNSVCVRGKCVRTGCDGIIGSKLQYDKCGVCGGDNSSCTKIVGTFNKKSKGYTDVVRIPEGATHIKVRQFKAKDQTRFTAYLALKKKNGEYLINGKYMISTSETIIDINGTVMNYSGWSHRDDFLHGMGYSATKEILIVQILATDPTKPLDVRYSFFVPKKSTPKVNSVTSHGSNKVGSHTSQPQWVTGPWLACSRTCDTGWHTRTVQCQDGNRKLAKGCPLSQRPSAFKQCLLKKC
Assay: Inhibition of human recombinant ADAMTS-5 using QTVTWPDMELPLPRNITEGEARGSVIL-TVKPIFEVSPSPL(biotinyl)K as substrate at 100 uM incubated 10 mins prior to substrate addition measured after 3 hrs by spectrophotometry
readout type: inhibition

Example entries begin here.
CN(NC(=S)NCCCCC1CCCCC1)C(=O)COc1ccc(Cl)cc1 < 30%
O=C(COc1ccc(Cl)cc1)Nn1ccn(Cc2ccc(-c3ccccc3)cc2)c1=S < 30%
CN(NC(=S)NCc1ccc(-c2ccccc2)cc1)C(=O)COc1ccc(Cl)cc1 < 30%

Bench note: what inhibition did O=C(COc1ccc(Cl)cc1)NCC(=S)NCc1ccc(-c2ccccc2)cc1 show?
< 30%

Source listed as ChEMBL document CHEMBL2434855.
